test system: UACC-62 melanoma; test: NCI-60 one-dose screen, 48 h; details: 10 µM unless noted
This is part of a sample that, as a whole, favours compounds with a hit. Of some 83,000 tested, about 20% had one in any assay. Active and inactive are the calls of the source. Rule for the calls: active = growth percent below 10; inactive = the rest.
Pick from active, inactive when you respond.

COc1cnc2c(c1)C(=O)c1c-2n(CCCN2CCN(C)CC2)c(=O)c2cc([N+](=O)[O-])ccc12
active
Cc1ccc(Nc2c(C(N)=O)cnc3ccc(-c4csc(N)n4)cc23)cc1
inactive
N#Cc1c(N)nc(N)nc1Nc1ccc(Br)cc1
inactive

*Q* Each compound tested received a call. Report the one for "c1ccc2c(Nc3cccc4ccccc34)cccc2c1" .
*A* inactive

*Q* Short answer needed: outcome of this test for "COc1ccc(/C=C/C(=O)c2ccc(NC(=O)c3cc4cc5ccccc5nc4s3)cc2)cc1OC" ?
*A* inactive

*Q* Each compound tested received a call. Report the one for "Clc1nc(Cl)c2c3c(sc2n1)CCCC3" .
*A* inactive

*Q* What did the test return for "CC(C)(C)c1nn(-c2ccccc2)c2c1CC1(CN2Cc2ccc3c(c2)OCO3)C(=O)c2ccccc2C1=O" ?
*A* inactive

*Q* Kindly provide the recorded test outcome for the following compound: "CCN(CC)CC#CCOC(=O)[C@]1(C)CCC[C@@]2(C)[C@H]1CC(C=O)=C1C=C(C(C)C)CC[C@@H]12"
*A* inactive

*Q* I would be grateful if you could indicate the recorded call for COC1C/C(=N\O)C2OC(c3ccccc3)OCC2O1 (stereo not given) .
*A* inactive

*Q* Check the results log: what was the call for "Cc1ccccc1CCO" ?
*A* inactive

*Q* Write down the call the test reported for this compound. Item: "Cn1c2ccccc2c2c3[nH]c(=O)[nH]c(=O)c3c3c4ccccc4n(C)c3c21"
*A* inactive

*Q* // outcome(item) with item = "CC/C(=C(\c1ccccc1)c1ccc(OCCNC)cc1)c1ccccc1"
*A* active

*Q* Recorded test outcome, item "CN(CC(=O)N(Cc1ccc(C2CCCCC2)cc1)c1ccc(C(=O)NO)cc1)S(=O)(=O)c1c(F)c(F)c(F)c(F)c1F"
*A* inactive

*Q* Which outcome did this test record for the compound "Cc1nn(-c2ccccc2)c2nc(C)n(-c3ccc(Br)cc3)c(=O)c12" ?
*A* inactive

*Q* Per the assay record, what outcome was assigned to "CCN(CC)Cc1cc(Nc2c3ccc(Cl)cc3nc3c(C)cccc23)ccc1O" ?
*A* active

*Q* I'd appreciate the recorded outcome for C=C1CC2(OC1=O)C(=O)N(CCCCCCCCCCCCN1C(=O)C3(CC(=C)C(=O)O3)c3ccccc31)c1ccccc12 (stereo not given) from this test.
*A* inactive

*Q* Entry "CNCc1cccc2c1OCCOCCOCCN(C)S(=O)(=O)c1ccc(cc1)-c1cnc(N)c(n1)C(=O)N2" : call = ?
*A* inactive

*Q* Recorded test call requested for "COc1ccc(/C=c2/c(=O)[nH]c3nc4sc(C)c(C)c4c(=O)n23)cc1"
*A* inactive

*Q* Test call, this compound: "O=S(=O)(NCCCNc1cc(-c2cn(-c3ccccc3)nc2-c2cccc(O)c2)ccn1)c1ccccc1"
*A* inactive

*Q* Please state the recorded outcome for this compound: "O=C1c2cc3c(cc2-c2c1c1cc(Cl)c(Cl)cc1c(=O)n2CCCn1ccnc1)OCO3"
*A* active

*Q* Which outcome was assigned to "COc1ccc(-c2cc(-c3cccnc3)nc3sc4c(=O)n(-c5ccc(C)cc5)cnc4c23)cc1OC" in this test?
*A* inactive

*Q* Recorded call for CCOC(=O)C(Cc1cc(I)c(O)c(I)c1)NC(=O)c1ccccc1 (stereo not given) ?
*A* inactive

*Q* Please indicate how the test categorized "COc1ccc(C/C(C)=C(\c2ccc(OCCN3CCCCCC3)cc2)c2ccc(OC(=O)C3CCCCC3)cc2)cc1" .
*A* inactive

*Q* Status in this test for "COc1c2ccccc2c(OC)c2[nH]c(=O)ccc12" ?
*A* active

*Q* State the result this test recorded for "NC1=CC(=O)C(=O)c2ccccc21" .
*A* inactive
